- target of assay: Tyrosine-protein kinase ZAP-70 (Homo sapiens, UniProt P43403)
- Sequence (P43403 whole entry): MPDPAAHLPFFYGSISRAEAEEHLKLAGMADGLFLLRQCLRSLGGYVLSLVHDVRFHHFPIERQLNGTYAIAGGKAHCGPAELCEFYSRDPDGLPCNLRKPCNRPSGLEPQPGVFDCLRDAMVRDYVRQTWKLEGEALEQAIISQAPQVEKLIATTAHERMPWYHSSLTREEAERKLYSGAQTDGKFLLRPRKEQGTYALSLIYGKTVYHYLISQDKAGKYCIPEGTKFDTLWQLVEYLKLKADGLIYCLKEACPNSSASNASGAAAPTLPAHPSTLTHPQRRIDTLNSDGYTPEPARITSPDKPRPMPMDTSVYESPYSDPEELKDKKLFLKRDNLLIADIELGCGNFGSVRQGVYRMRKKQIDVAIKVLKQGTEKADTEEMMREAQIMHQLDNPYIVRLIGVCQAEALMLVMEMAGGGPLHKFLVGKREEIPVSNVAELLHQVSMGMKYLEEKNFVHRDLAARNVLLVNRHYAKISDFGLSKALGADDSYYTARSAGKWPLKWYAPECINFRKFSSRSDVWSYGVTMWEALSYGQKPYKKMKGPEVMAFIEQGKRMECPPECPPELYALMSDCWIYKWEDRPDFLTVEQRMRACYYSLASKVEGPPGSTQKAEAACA
pKd: −log10 of the molar value.
measured parameter: pKd

[[record]]
molecular_string = "CC(C)CN(C(=O)c1cccnc1)c1c2ccccc2c(=O)n2c1[nH]c1ccccc12"
measured_parameter = "pKd"
result = "≤ 5.30"


====

- target of assay: Cyclin-dependent kinase 2 (Homo sapiens)
measured parameter: Kd

[[record]]
molecular_string = "CC(C)CN(C(=O)c1cccnc1)c1c2ccccc2c(=O)n2c1[nH]c1ccccc12"
measured_parameter = "Kd"
result = "≥ 5 µM"


====

- target of assay: Mitogen-activated protein kinase kinase kinase 9 (Homo sapiens)
- Sequence (P80192 whole entry, the tested form may be a part): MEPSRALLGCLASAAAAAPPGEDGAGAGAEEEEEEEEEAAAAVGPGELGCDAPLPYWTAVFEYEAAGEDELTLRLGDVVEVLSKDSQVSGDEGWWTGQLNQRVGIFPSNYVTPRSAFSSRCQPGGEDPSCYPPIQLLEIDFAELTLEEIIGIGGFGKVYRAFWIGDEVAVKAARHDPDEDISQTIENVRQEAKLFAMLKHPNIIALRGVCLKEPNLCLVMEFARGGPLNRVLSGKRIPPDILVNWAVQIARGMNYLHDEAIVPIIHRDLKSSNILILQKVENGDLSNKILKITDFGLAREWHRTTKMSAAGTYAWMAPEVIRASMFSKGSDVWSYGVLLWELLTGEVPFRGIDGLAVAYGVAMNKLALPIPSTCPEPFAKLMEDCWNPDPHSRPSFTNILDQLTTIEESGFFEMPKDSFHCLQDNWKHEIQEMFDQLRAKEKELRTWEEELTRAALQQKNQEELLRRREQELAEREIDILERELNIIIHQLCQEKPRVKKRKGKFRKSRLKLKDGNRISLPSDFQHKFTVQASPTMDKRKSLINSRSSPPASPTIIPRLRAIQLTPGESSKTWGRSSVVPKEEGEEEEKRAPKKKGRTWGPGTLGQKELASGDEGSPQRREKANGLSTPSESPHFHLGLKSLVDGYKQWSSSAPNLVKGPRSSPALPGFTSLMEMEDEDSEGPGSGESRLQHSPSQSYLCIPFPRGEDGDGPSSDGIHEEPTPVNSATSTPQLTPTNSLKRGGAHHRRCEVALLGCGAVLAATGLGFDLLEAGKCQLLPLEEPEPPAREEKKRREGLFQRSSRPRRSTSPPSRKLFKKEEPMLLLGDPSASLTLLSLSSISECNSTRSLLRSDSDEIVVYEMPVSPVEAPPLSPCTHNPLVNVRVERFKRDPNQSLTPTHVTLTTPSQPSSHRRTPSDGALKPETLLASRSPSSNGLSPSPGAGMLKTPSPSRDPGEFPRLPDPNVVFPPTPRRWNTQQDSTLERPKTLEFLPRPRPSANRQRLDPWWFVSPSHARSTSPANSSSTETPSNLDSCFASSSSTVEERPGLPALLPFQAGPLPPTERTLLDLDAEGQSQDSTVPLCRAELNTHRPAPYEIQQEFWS
- measurement protocol: Binding affinity to human MLK1 (V88 to W426 residues) expressed in bacterial expression system by KINOMEscan assay
measured parameter: Kd

[[record]]
molecular_string = "CC(C)CN(C(=O)c1cccnc1)c1c2ccccc2c(=O)n2c1[nH]c1ccccc12"
target_of_assay = "Mitogen-activated protein kinase kinase kinase 9 (Homo sapiens)"
measured_parameter = "Kd"
result = "≥ 5 µM"


====

- target of assay: Serine/threonine-protein kinase PLK3 (Homo sapiens, UniProt Q9H4B4)
- Sequence (Q9H4B4 whole entry): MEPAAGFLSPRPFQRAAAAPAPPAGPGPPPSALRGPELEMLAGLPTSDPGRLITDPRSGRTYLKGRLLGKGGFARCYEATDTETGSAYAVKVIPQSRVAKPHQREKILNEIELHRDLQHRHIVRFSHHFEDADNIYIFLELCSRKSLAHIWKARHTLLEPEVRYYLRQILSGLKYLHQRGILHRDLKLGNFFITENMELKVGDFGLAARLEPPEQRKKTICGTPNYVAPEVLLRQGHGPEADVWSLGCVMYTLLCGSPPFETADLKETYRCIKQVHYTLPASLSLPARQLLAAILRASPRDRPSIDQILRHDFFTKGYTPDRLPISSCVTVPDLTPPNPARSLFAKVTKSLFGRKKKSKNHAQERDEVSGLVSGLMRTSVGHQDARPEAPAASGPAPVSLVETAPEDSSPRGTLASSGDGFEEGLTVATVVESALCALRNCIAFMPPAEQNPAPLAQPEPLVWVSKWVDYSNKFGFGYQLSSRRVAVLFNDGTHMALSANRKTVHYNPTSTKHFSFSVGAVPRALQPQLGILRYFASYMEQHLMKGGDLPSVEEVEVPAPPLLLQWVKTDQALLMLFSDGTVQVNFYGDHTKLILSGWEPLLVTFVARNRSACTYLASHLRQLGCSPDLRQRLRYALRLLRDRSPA
measured parameter: Kd

[[record]]
molecular_string = "CC(C)CN(C(=O)c1cccnc1)c1c2ccccc2c(=O)n2c1[nH]c1ccccc12"
result = "≥ 5 µM"


====

// GI50 lookup, one value per entry
- Tested on: HT-29
- measurement protocol: Growth inhibition of human HT-29 cells by MTT assay
- Format: functional
measured parameter: GI50 (µM)

[[record]]
molecular_string = "CC(C)CN(C(=O)c1cccs1)c1c2ccccc2c(=O)n2c1[nH]c1ccccc12"
relation_symbol = "="
numeric_result = 49.5

[[record]]
molecular_string = "O=C(c1ccccc1)N(Cc1ccccc1)c1c2ccccc2c(=O)n2c1[nH]c1ccccc12"
relation_symbol = "="
numeric_result = 74.3

[[record]]
molecular_string = "O=C(c1ccccc1)N(c1ccccc1)c1c2ccccc2c(=O)n2c1[nH]c1ccccc12"
relation_symbol = ">"
numeric_result = 100

[[record]]
molecular_string = "O=C(Nc1c2ccccc2c(=O)n2c1[nH]c1ccccc12)c1ccccc1"
relation_symbol = ">"
numeric_result = 100

[[record]]
molecular_string = "O=C(c1cccnc1)N(c1ccccc1Br)c1c2ccccc2c(=O)n2c1[nH]c1ccccc12"
relation_symbol = "="
numeric_result = 61.3

[[record]]
molecular_string = "O=C(c1cccs1)N(c1c2ccccc2c(=O)n2c1[nH]c1ccccc12)C1CC1"
relation_symbol = "="
numeric_result = 51.3

[[record]]
molecular_string = "CC(C)CN(C(=O)c1ccco1)c1c2ccccc2c(=O)n2c1[nH]c1ccccc12"
relation_symbol = "="
numeric_result = 52.8

[[record]]
molecular_string = "CC(C)CN(C(=O)c1cccnc1)c1c2ccccc2c(=O)n2c1[nH]c1ccccc12"
relation_symbol = "="
numeric_result = 24.1

[[record]]
molecular_string = "CC(C)CN(C(=O)c1ccccc1C(=O)O)c1c2ccccc2c(=O)n2c1[nH]c1ccccc12"
relation_symbol = "="
numeric_result = 59.8

[[record]]
molecular_string = "O=C(c1ccncc1)N(CCc1ccccc1)c1c2ccccc2c(=O)n2c1[nH]c1ccccc12"
relation_symbol = "="
numeric_result = 52.3

